- target-system: recombinant human HPK1 (Homo sapiens (Human))
- measurement-notes: HPK1 kinase assay (ADP-Glo)
- experimental-setup: 25 μM ATP, MBP substrate
property-measured: IC50

Kindly indicate its recorded IC50. Item: CCOc1c(F)c(C)c(-c2ccc3nc(NC(=O)[C@@H]4C[C@@H]4F)cn3c2)c2cn[nH]c12 [Example 288]
< 0.1 µM

Identify measured IC50 corresponding to CC(C)N(C)c1c(F)c(Cl)c(-c2ccc3nc(NC(=O)[C@@H]4C[C@@H]4F)cn3c2)c2cn[nH]c12 [Example 360]
< 0.1 µM

Retrieve IC50 measured for CNC(=O)N(C)c1c(F)c(Cl)c(-c2ccn3nc(NC(=O)[C@@H]4C[C@@H]4F)cc3c2)c2cn[nH]c12 [Example 664] and print it.
< 0.1 µM

// Input: O=C(Nc1cc2cc(-c3c(Cl)c(F)c(Br)c4[nH]ncc34)ccn2n1)[C@@H]1C[C@@H]1F [Example 480] . Output its IC50 only.
< 0.1 µM

Read off the recorded IC50 for O=C(Nc1cc2cc(-c3c(Cl)c(F)c(OCC4CCCO4)c4[nH]ncc34)ccn2n1)[C@@H]1C[C@@H]1F (stereo partly shown) [Example 507]
< 0.1 µM

Provide one value: measured IC50 of CN(CC(F)(F)F)C(=O)c1c(F)c(Cl)c(-c2ccc3nc(NC(=O)[C@@H]4C[C@@H]4F)cn3c2)c2cn[nH]c12 [Example 347]
< 0.1 µM

Give the reported value of IC50 for this record: CNC1CCC(N(C)c2c(F)c(Cl)c(-c3ccn4nc(NC(=O)[C@@H]5C[C@@H]5F)cc4c3)c3cn[nH]c23)CC1 (stereo partly shown) [Example 505]
< 0.1 µM

###

- target-system: recombinant human HPK1 (Homo sapiens (Human))
- measurement-notes: HPK1 kinase assay (ADP-Glo)
- experimental-setup: 25 μM ATP, MBP substrate
property-measured: IC50

Dear colleague, please send me the reported IC50 for Cc1ccc2[nH]nc(N)c2c1-c1ccc2nc(NC(=O)C3CC3)sc2c1 [Example 26] when you can.
> 1 µM

Specify measured IC50 for C=Cc1c(F)c(Cl)c(-c2ccc3nc(NC(=O)[C@@H]4C[C@@H]4F)sc3c2)c2cn[nH]c12 [Example 61] .
< 0.1 µM

Return value of IC50 for input O=C(Nc1nc2ccc(-c3c(Cn4cccn4)ccc4[nH]ncc34)cc2s1)[C@@H]1C[C@@H]1F [Example 38] , no commentary.
> 1 µM

Provide one value: measured IC50 of CNC(=O)c1c(F)c(C)c(-c2ccc3nc(NC(=O)[C@@H]4C[C@@H]4F)cn3c2)c2cn[nH]c12 [Example 338]
0.101 to 0.5 µM

Return IC50 for the following compound: CNC(=O)c1c(F)c(C)c(-c2ccc3nc(NC(=O)[C@@H]4C[C@@H]4F)sc3n2)c2cn[nH]c12 [Example 206]
0.101 to 0.5 µM

Output IC50 of CC(C)Nc1c(F)c(Cl)c(-c2ccc3nc(NC(=O)[C@@H]4C[C@@H]4F)cn3c2)c2cn[nH]c12 [Example 359]
< 0.1 µM

Return IC50 (reported value) for this compound: C[C@@H](c1c(F)c(Cl)c(-c2ccc3nc(NC(=O)[C@@H]4C[C@@H]4F)cn3c2)c2cn[nH]c12)n1cnnn1 [Example 414]
< 0.1 µM

Tell us which IC50 value is on record for COCc1c(F)c(Cl)c(-c2ccc3nc(NC(=O)[C@@H]4C[C@@H]4F)cn3c2)c2cn[nH]c12 [Example 390]
< 0.1 µM

Return IC50 for the following compound: CCN(C)c1c(F)c(Cl)c(-c2ccn3nc(NC(=O)[C@@H]4C[C@@H]4F)cc3c2)c2cn[nH]c12 [Example 564]
< 0.1 µM

Determine its reported IC50: O=C(Nc1nc2ccc(-c3c(O)ccc4[nH]ncc34)cc2s1)C1CC1 [Example 27]
> 1 µM

Identify the reported IC50 for the following entry. CCc1c(F)c(F)c2[nH]ncc2c1-c1ccn2nc(NC(=O)[C@@H]3C[C@@H]3F)cc2c1 [Example 532]
< 0.1 µM

Quickly give me recorded IC50 for CC(Nc1c(F)c(Cl)c(-c2ccn3nc(NC(=O)[C@@H]4C[C@@H]4F)cc3c2)c2cn[nH]c12)C1CC1 (stereo partly drawn) [Example 653]
< 0.1 µM

# return recorded IC50 for input CCN(C)c1c(F)c(Cl)c(-c2ccc3nc(NC(=O)[C@@H]4C[C@@H]4F)cn3c2)c2cn[nH]c12 [Example 306]
< 0.1 µM

Respond only with IC50 recorded for O=C(Nc1cn2cc(-c3c(Cl)c(F)c(N4CCCC4=O)c4[nH]ncc34)ccc2n1)[C@@H]1C[C@@H]1F [Example 336]
< 0.1 µM

Determine from records and report IC50 for COc1ccc2[nH]ncc2c1-c1ccc2nc(NC(=O)C3CC3)sc2c1 [Example 24]
0.101 to 0.5 µM

###

- target-system: recombinant human HPK1 (Homo sapiens (Human), UniProt Q92918)
- Sequence (Q92918 whole entry): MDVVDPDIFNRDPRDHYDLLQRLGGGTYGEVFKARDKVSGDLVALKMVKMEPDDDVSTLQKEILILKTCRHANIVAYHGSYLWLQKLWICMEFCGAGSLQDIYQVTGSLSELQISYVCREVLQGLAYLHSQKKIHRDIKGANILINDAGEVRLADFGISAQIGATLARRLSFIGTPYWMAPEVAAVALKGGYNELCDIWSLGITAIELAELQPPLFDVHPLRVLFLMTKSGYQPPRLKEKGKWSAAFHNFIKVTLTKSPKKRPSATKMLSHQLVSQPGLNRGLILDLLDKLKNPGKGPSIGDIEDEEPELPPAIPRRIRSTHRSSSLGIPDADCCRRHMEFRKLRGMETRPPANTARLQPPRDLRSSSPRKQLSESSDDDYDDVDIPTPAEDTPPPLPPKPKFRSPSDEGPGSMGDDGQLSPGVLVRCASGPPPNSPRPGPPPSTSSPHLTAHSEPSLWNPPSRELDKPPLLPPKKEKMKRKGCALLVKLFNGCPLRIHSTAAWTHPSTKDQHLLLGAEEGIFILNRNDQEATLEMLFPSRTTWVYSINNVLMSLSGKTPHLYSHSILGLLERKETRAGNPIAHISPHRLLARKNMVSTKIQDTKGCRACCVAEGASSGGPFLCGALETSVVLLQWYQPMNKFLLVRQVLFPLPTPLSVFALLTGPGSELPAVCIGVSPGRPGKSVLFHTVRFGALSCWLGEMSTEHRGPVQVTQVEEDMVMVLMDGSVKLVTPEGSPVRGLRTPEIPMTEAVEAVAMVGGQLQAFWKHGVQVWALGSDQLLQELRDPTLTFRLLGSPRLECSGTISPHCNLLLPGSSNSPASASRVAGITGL
- measurement-notes: HPK1 kinase assay (ADP-Glo)
- experimental-setup: 25 μM ATP, MBP substrate
property-measured: IC50

Given the compound Cc1c(F)c(OCCN(C)C(N)=O)c2[nH]ncc2c1-c1ccn2nc(NC(=O)[C@@H]3C[C@@H]3F)cc2c1 , write its reported IC50.
< 100 nM

Give the reported value of IC50 for this record: CN(C)C1CCC(N(C)c2c(F)c(Cl)c(-c3ccn4nc(NC(=O)[C@@H]5C[C@@H]5F)cc4c3)c3cn[nH]c23)CC1 (stereo partly drawn)
< 100 nM

Supply measured IC50 of COC(=O)c1c(F)c(Cl)c(-c2ccn3nc(NC(=O)[C@@H]4C[C@@H]4F)cc3c2)c2cn[nH]c12 in your reply.
< 100 nM

# return recorded IC50 for input Cc1c(F)c(Cl)c(-c2ccc3nc(NC(=O)[C@@H]4C[C@@H]4F)sc3n2)c2cn[nH]c12
< 100 nM

Find the measured IC50 of COc1c(F)c(Cl)c(-c2ccn3nc(NC(=O)[C@@H]4C[C@@H]4F)cc3c2)c2cn[nH]c12 and report it.
< 100 nM

Give the measured IC50 for CC(=O)Nc1c(F)c(Cl)c(-c2ccc3nc(NC(=O)[C@@H]4C[C@@H]4F)sc3n2)c2cn[nH]c12
< 100 nM

Annotate the compound CCc1c(F)c(SC)c2[nH]ncc2c1-c1ccc2nc(NC(=O)[C@@H]3C[C@@H]3F)cn2c1 with its measured IC50.
< 100 nM

Retrieve IC50 measured for O=C(Nc1nc2ccc(-c3c(Br)c(F)cc4[nH]ncc34)cc2s1)[C@@H]1C[C@@H]1F and print it.
101 to 500 nM

Specify measured IC50 for CN(C)CCN(C)c1c(F)c(Cl)c(-c2ccc3nc(NC(=O)[C@@H]4C[C@@H]4F)sc3c2)c2cn[nH]c12 .
< 100 nM

Specify IC50 for CSc1ccc2[nH]ncc2c1-c1ccn2nc(NC(=O)[C@@H]3C[C@@H]3F)cc2c1 and stop.
< 100 nM

Read the entry Cc1c(F)cc2[nH]nc(I)c2c1-c1ccc2nc(NC(=O)[C@@H]3C[C@@H]3F)sc2c1 and write its reported IC50.
> 1000 nM

Please supply the value of reported IC50 for the item Cc1c(F)c(Cl)c(-c2ccc3nc(NC(=O)[C@@H]4C[C@@H]4F)sc3c2)c2cn[nH]c12
< 100 nM

Please report IC50 for the following compound: O=C(Nc1cn2cc(-c3c(C4CC4)c(F)cc4[nH]ncc34)ccc2n1)C1CC1
> 1000 nM

Supply recorded IC50 for CSc1c(F)cc(-c2ccn3nc(NC(=O)[C@@H]4C[C@@H]4F)cc3c2)c2cn[nH]c12 here.
< 100 nM

For NC1CCC(Nc2c(F)c(Cl)c(-c3ccn4nc(NC(=O)[C@@H]5C[C@@H]5F)cc4c3)c3cn[nH]c23)CC1 (stereo partly drawn) , write its IC50.
< 100 nM

###

- target-system: recombinant human HPK1 (Homo sapiens (Human), UniProt Q92918)
- measurement-notes: HPK1 kinase assay (ADP-Glo)
- experimental-setup: 25 μM ATP, MBP substrate
pIC50: −log10 of the molar value.
property-measured: pIC50

Please report the measured pIC50 for CN(C)C(=O)c1c(F)c(Cl)c(-c2ccc3nc(NC(=O)[C@@H]4C[C@@H]4F)cn3c2)c2cn[nH]c12 tested on recombinant human HPK1 (Homo sapiens (Human), UniProt Q92918).
> 7.00

Recall the reported pIC50 of O=C(Nc1cn2cc(-c3c(Br)ccc4[nH]ncc34)ccc2n1)C1CC1 on recombinant human HPK1 (Homo sapiens (Human), UniProt Q92918) and write it down.
< 6.00

Look up and report pIC50, with recombinant human HPK1 (Homo sapiens (Human), UniProt Q92918) as system, for CN(C)c1c(F)c(Cl)c(-c2ccc3nc(NC(=O)[C@H]4C[C@@H]4F)cn3c2)c2cn[nH]c12
> 7.00

Output reported pIC50 of the molecule CC(=O)N(CC#N)c1c(F)c(Cl)c(-c2ccn3nc(NC(=O)[C@@H]4C[C@@H]4F)cc3c2)c2cn[nH]c12 on recombinant human HPK1 (Homo sapiens (Human), UniProt Q92918).
> 7.00

Report the value of pIC50 obtained on recombinant human HPK1 (Homo sapiens (Human), UniProt Q92918) for CNC(=O)c1c(F)c(C)c(-c2ccc3nc(NC(=O)[C@@H]4C[C@@H]4F)sc3c2)c2cn[nH]c12 .
6.30 to 7.00

Give the observed pIC50 of CCOc1c(F)c(SC)c(-c2ccn3nc(NC(=O)[C@@H]4C[C@@H]4F)cc3c2)c2cn[nH]c12 for recombinant human HPK1 (Homo sapiens (Human), UniProt Q92918).
> 7.00

Find pIC50 for Cc1c(F)c(OC(F)(F)F)c2[nH]ncc2c1-c1ccc2nc(NC(=O)[C@@H]3C[C@@H]3F)sc2n1 on recombinant human HPK1 (Homo sapiens (Human), UniProt Q92918) and write it down.
< 6.00

# lookup: recombinant human HPK1 (Homo sapiens (Human), UniProt Q92918) pIC50, key = CSc1c(F)cc2[nH]ncc2c1-c1ccn2nc(NC(=O)C3CC3)cc2c1
> 7.00

Provide pIC50, system recombinant human HPK1 (Homo sapiens (Human), UniProt Q92918), entry Cc1ccc2[nH]ncc2c1-c1ccc2nc(NC(=O)C3CCC3)sc2c1
6.00 to 6.30

Please look at Cc1c(F)c(C)c2[nH]ncc2c1-c1ccc2nc(NC(=O)[C@@H]3C[C@@H]3F)cn2c1 and tell me its recorded pIC50 on recombinant human HPK1 (Homo sapiens (Human), UniProt Q92918).
> 7.00

Enter recorded pIC50 with recombinant human HPK1 (Homo sapiens (Human), UniProt Q92918) for O=C(Nc1cc2cc(-c3cc(F)c(OC(F)(F)F)c4[nH]ncc34)ccn2n1)[C@@H]1C[C@@H]1F here.
> 7.00

Enter recorded pIC50 with recombinant human HPK1 (Homo sapiens (Human), UniProt Q92918) for CCc1c(F)c(SCC(=O)N(C)C)c2[nH]ncc2c1-c1ccc2nc(NC(=O)[C@@H]3C[C@@H]3F)sc2n1 here.
> 7.00

Answer briefly: pIC50 recorded on recombinant human HPK1 (Homo sapiens (Human), UniProt Q92918) for CCOc1c(F)c(SC)c(-c2ccc3nc(NC(=O)[C@@H]4C[C@@H]4F)sc3c2)c2cn[nH]c12
> 7.00

Under recombinant human HPK1 (Homo sapiens (Human), UniProt Q92918): report pIC50 of O=C(Nc1cn2cc(-c3c(Cl)c(F)c(O)c4[nH]ncc34)ccc2n1)[C@@H]1C[C@@H]1F .
> 7.00

Recall the reported pIC50 of Cc1c(F)c(OCCNC(=O)C(F)(F)F)c2[nH]ncc2c1-c1ccn2nc(NC(=O)[C@@H]3C[C@@H]3F)cc2c1 on recombinant human HPK1 (Homo sapiens (Human), UniProt Q92918) and write it down.
> 7.00
